# System: HCC 2998
# Protocol Notes: NCI tumour cell line growth inhibition, 48 h
Calls of active or inactive are those of the source. No stated cut-off is given here; in the data, active = GI50 up to about 1.1 µM and inactive = higher.
Experimental Readout: GI50

{"columns": ["Compound", "GI50"],
 "data": [
  ["Fc1ccc(Oc2nc3ccccc3nc2-c2ccccc2)cc1", "> 100 µM (inactive)"]
]}

Summary for this compound, CCOC(=O)C(Cc1ccc(N(CCCl)CCCl)cc1)NC(=O)CCCN1C(=O)CN=C(c2ccccc2)c2cc(Cl)ccc21 (configuration not stated) : GI50 is 12.4 µM (inactive)

Summary for this compound, `CC[C@H](C)N(CCN)C(=O)c1cc2ccccc2c(-c2ccccc2Cl)n1` : GI50 is 2.72 µM (inactive)

Summary for this compound, Cc1ccc(CC(Cc2ccccc2C)C(=O)O)c(C(=O)O)c1 (configuration not stated) : GI50 is > 100 µM (inactive)

Summary for this compound, COc1cc(C2c3cc4c(cc3[C@@H](Nc3ccccc3)C3COC(=O)[C@H]23)OCO4)cc(OC)c1O (some centres not stated) : GI50 is 1.23 µM (inactive)

Summary for this compound, `O=C1CCN/C(=N\C(=O)C(F)(F)F)N1CCc1c[nH]c2ccccc12` : GI50 is > 100 µM (inactive)

Summary for this compound, `CCCCCCNC(=O)c1cc(CCc2cc(O)ccc2O)ccc1O` : GI50 is 3.15 µM (inactive)

###

# Test system: Malme-3M
# Protocol Notes: NCI tumour cell line growth inhibition, 48 h
Activity calls are given as the source filed them. Rule as the data show it: active = GI50 up to about 1.1 µM and inactive = higher.
Choose one outcome from this list and give only that: 1 (yes) = active, 0 (no) = inactive

Input: # lookup: test call for `COC(=O)/C(C#N)=C1\NC(=O)c2ccccc21`
Output: 0 (no)

Input: # lookup: test call for `CCOC(=O)NC(=O)c1cn(CCN2CCN(C(=O)CNC(=O)CNC(=O)Cn3cc(C(=O)NC(=O)OCC)c(=O)[nH]c3=O)CC2)c(=O)[nH]c1=O`
Output: 0 (no)

Input: # lookup: test call for `CCOC(=O)/C(=C\c1ccc(N(CCC#N)CCC#N)cc1C)NC(=O)/C=C/c1ccccc1`
Output: 0 (no)

Input: # lookup: test call for `COC(=O)c1c(C)cccc1/C=C1\Cc2cc(C)cc(C)c2C1=O`
Output: 0 (no)

Input: # lookup: test call for [O-][S+]1c2ccccc2N=C(c2ccc3ccccc3c2)CC1C1=CC=CCC1 (configuration not stated)
Output: 0 (no)

Input: # lookup: test call for CSC[S+]([O-])C[C@H](CO)NC(=O)/C=C/c1c(C)[nH]c(=O)[nH]c1=O (some centres not stated)
Output: 1 (yes)

Input: # lookup: test call for `CCOc1nc(-c2ccccc2)cc(-c2ccc(N3CCOCC3)cc2)c1C#N`
Output: 0 (no)

###

Listed below: GI50 values for each entry.
# System: U-251
# Protocol Notes: NCI tumour cell line growth inhibition, 48 h
Active and inactive are the calls of the source. Cut-off read from the data, not from the text of the source: active = GI50 up to about 1.1 µM and inactive = higher.

Examples with answers:
{"columns": ["Molecule", "Experimental Result"],
 "data": [
  ["COC(=O)C12CCC(C)(C)CC1C1=CCC3C4(C)CC(O)C(O)C(C)(C(=O)OC)C4CCC3(C)C1(CO)CC2 (stereo not drawn)", "18.5 µM (inactive)"],
  ["Cn1c(=O)c2c(-c3ccccc3)onc2n(C)c1=O", "28.1 µM (inactive)"],
  ["O=C1c2ccccc2-c2ccc(NC(=O)C3CCCCC3C(=O)O)cc21 (stereo not drawn)", "> 100 µM (inactive)"],
  ["CCN(CC)c1ccc(/C=C/C2=NN(c3cccc(S(=O)(=O)O)c3)C3(C2)C(Cl)C(=O)N3c2nc3ccccc3s2)cc1 (stereo not drawn)", "3.4 µM (inactive)"]
]}

Consider the record given below.
Summary for this molecule, `N[C@H]1CCN(c2c(F)cc3c(=O)c(C(=O)O)cn4c3c2Oc2cc3c(ccc5ccccc53)cc2-4)C1` : GI50 is 1.39 µM (inactive)

All figures here come from ChEMBL document CHEMBL1201862.
